Biological target: CYP3A4 (Homo sapiens)
Sequence (P08684 whole entry): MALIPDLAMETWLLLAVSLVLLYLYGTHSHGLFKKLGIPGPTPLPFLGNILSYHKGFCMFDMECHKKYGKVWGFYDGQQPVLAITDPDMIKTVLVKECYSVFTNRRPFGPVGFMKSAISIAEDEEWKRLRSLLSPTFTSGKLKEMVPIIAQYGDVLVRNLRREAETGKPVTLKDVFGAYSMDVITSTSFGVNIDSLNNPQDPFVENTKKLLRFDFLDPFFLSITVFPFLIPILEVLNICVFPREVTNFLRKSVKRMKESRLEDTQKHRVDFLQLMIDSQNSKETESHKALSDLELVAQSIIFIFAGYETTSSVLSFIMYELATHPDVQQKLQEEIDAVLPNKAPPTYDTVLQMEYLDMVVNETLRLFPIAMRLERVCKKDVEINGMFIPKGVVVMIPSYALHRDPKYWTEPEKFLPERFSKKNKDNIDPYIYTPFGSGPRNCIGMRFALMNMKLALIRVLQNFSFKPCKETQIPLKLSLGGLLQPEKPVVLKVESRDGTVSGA
Test: Inhibition of CYP3A4 at 10 uM
Type: ADME
measured.quantity: inhibition at 10 µM

// O=C(c1cc(Cc2c[nH]c(=O)c3cc(Cl)c(Cl)n23)ccc1F)N1CCC(N2CCCC2)CC1 : inhibition at 10 µM value = 30%

====

The following molecules are shown together with reported CC50 values.
Test system: HeLa
Experiment: Antiproliferative activity against BRCA1-deficient human HeLa cells after 7 days by celltiter-blue assay
Assay type: functional
Settings: 168 h

>>> experimental_value("CCCCN1CCN(C(=O)c2cc(Cc3c[nH]c(=O)c4cc(Cl)c(Cl)n34)ccc2F)CC1")
"1600 nM"
>>> experimental_value("O=C(c1cc(Cc2c[nH]c(=O)c3cc(Cl)c(Cl)n23)ccc1F)N1CCN(c2ncnc3ccccc23)CC1")
"60 nM"
>>> experimental_value("O=C(c1cc(Cc2c[nH]c(=O)c3cc(Cl)c(Cl)n23)ccc1F)N1CCN(C2CCCCC2)CC1")
"970 nM"

Observed CC50, HeLa, O=C(c1cc(Cc2c[nH]c(=O)c3cc(Cl)c(Cl)n23)ccc1F)N1CCC2(CCCN2)CC1 : 48 nM

Origin of the recorded values: ChEMBL document CHEMBL1158513
